Data origin: patent US11535598B2

- Test system: PANC1
- ASSAY_PROCEDURE: Cell proliferation assay MTT, PANC1
- CONDITION_INFO: read-out: Cytotoxicity IC50 Pancreas PANC1, 72 hr treated
PROPERTY_MEASURED: IC50

// known answers, use as guide
# COMPOUND, IC50
rows = [
    ("COc1ccccc1CCn1c(=O)c2ccccc2n(Cc2ccc(C(=O)NO)cc2)c1=O", "> 10 µM"),
    ("CN1CCc2c(c3ccccc3n2Cc2ccc(C(=O)NO)cc2)C1 [Tubastatin A, reference compound]", "> 10 µM"),
]

--- query ---
[Q] Quick one: give measured IC50 for "N#Cc1ccc2c(=O)n(CCc3ccccc3)c(=O)n(Cc3ccc(C(=O)NO)cc3)c2c1"
[A] > 10 µM

---

# IC50 per entry
- Test system: A549
- CONDITION_INFO: human, 72 h

# COMPOUND, ASSAY_VALUE
rows = [
    ("O=C(NO)C(F)(F)c1ccc(Cn2c(=O)n(CCc3ccccc3)c(=O)c3ccccc32)cc1 [Compound 20]", "> 10 µM"),
]

[Q] Output IC50 of COc1ccc2c(=O)n(CCc3ccccc3)c(=O)n(Cc3ccc(C(=O)NO)cc3)c2c1 [Compound 2]
[A] > 10 µM

[Q] Output measured IC50 for this item: O=C(NO)c1ccc(Cn2c(=O)n(CCc3ccccc3)c(=O)c3cccnc32)cc1 [Compound 12]
[A] > 10 µM
